B1: TPR t1 (parent)
chain: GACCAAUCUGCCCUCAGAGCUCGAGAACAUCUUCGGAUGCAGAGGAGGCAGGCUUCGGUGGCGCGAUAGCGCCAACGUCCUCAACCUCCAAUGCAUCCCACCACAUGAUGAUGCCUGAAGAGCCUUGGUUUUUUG

Variants of: B1
Protocol Details: polymerase ribozyme fitness, log enrichment relative to wild type (log ratio); higher = more active; in vitro selection for triplet polymerase activity
# thresholds on polymerase ribozyme fitness (log ratio) define classes: c1 = under -4, c2 = from -4 up to -0.7, c3 = -0.7 and over

Which of the defined bands does the recorded polymerase ribozyme fitness (log ratio) of U9C U14C U33G G51A G69U A118G sit within?
c1

Which of the defined bands does the recorded polymerase ribozyme fitness (log ratio) of C11G C20U A26C A27G G44U C114U sit within?
c1

Which of the defined bands does the recorded polymerase ribozyme fitness (log ratio) of C70A A121G sit within?
c3

Which of the defined bands does the recorded polymerase ribozyme fitness (log ratio) of C72A G110A U131A sit within?
c3

Which of the defined bands does the recorded polymerase ribozyme fitness (log ratio) of G10U G19C A37U C72A C123G U130C sit within?
c2

Which of the defined bands does the recorded polymerase ribozyme fitness (log ratio) of U96G G117A A119G sit within?
c3

Which of the defined bands does the recorded polymerase ribozyme fitness (log ratio) of U9A C15U A41U G60U U92C C123A sit within?
c3

Which of the defined bands does the recorded polymerase ribozyme fitness (log ratio) of C20A C72U sit within?
c2

Which of the defined bands does the recorded polymerase ribozyme fitness (log ratio) of G61A C102G sit within?
c1

Which of the defined bands does the recorded polymerase ribozyme fitness (log ratio) of C12U C102A C124U sit within?
c3

Which of the defined bands does the recorded polymerase ribozyme fitness (log ratio) of C115U G120C sit within?
c2

Which of the defined bands does the recorded polymerase ribozyme fitness (log ratio) of C12U C15U C49A C101U U133G sit within?
c2

Which of the defined bands does the recorded polymerase ribozyme fitness (log ratio) of U32C C70G A74C sit within?
c1

Which of the defined bands does the recorded polymerase ribozyme fitness (log ratio) of C80U U131A sit within?
c2

Which of the defined bands does the recorded polymerase ribozyme fitness (log ratio) of C13G G47U C114A sit within?
c1

Which of the defined bands does the recorded polymerase ribozyme fitness (log ratio) of C15U C28U G44U C62U U87C U106C sit within?
c1

Which of the defined bands does the recorded polymerase ribozyme fitness (log ratio) of A41U G42C C114A C124A sit within?
c2

Which of the defined bands does the recorded polymerase ribozyme fitness (log ratio) of U38A C40A G93U sit within?
c2

Which of the defined bands does the recorded polymerase ribozyme fitness (log ratio) of C13U G69U C94U sit within?
c3

Which of the defined bands does the recorded polymerase ribozyme fitness (log ratio) of G93A U112A sit within?
c3

Which of the defined bands does the recorded polymerase ribozyme fitness (log ratio) of C79U C94G A100C G117C sit within?
c1
